Origin of measurements: patent US8288371B2

Protein target, amino acids: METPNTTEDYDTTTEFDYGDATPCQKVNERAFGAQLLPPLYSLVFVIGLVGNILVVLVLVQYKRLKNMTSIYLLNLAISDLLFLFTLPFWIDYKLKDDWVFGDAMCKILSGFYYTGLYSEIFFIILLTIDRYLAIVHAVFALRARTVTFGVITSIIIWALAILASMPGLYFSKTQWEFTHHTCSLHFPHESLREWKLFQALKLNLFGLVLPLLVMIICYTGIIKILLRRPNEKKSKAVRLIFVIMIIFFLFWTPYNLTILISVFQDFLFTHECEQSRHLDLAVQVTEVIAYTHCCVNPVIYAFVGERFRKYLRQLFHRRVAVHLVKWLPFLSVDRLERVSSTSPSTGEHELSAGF
pIC50: −log10 of the molar value.
Recorded pIC50 values for a group of molecules are listed next.

# annotated cases, reported pIC50 shown
>>> measuredresult("O=C(NC(c1ccccc1)c1ccccc1)N1C[C@H](O)C[C@@H]1c1nncn1Cc1ccc(Cl)cc1 [Compound 476]")
"6.30 to 7.30"
>>> measuredresult("Cc1nnc([C@H]2CCCN2C(=O)Nc2ccc(C#N)cc2F)n1Cc1ccc(Cl)cc1 [Compound 454]")
"6.30 to 7.30"
>>> measuredresult("Cc1nnc([C@H]2CCCN2C(=O)N[C@H]2CCOc3cccc(F)c32)n1Cc1ccc(Cl)cc1 [Compound 164]")
"6.30 to 7.30"
>>> measuredresult("CNC(=O)c1ccc(C)c(NC(=O)N2CCC[C@@H]2c2nnc(C)n2Cc2ccc(Cl)cc2)c1 [Compound 216]")
"> 7.30"
>>> measuredresult("O=C(N[C@H]1CCOc2cc(C(F)(F)F)ccc21)N1CCC[C@@H]1c1ncncc1Cc1ccc(Cl)cc1 [Compound 24]")
"6.30 to 7.30"

Req: Can you share its pIC50? I mean this molecule: CC[C@H](Nc1c(N2CCC[C@@H]2c2nnc(C)n2Cc2ccc(Cl)cc2)c(=O)c1=O)c1cc2ccccc2o1 [Compound 588]
Resp: 6.30 to 7.30

Req: And for Cc1nnc([C@H]2C[C@H](O)CN2C(=O)Cc2cccc(C(F)(F)F)c2)n1Cc1ccc(Cl)cc1 [Compound 499] ?
Resp: 6.30 to 7.30

Req: And for CCC(CC)NC(=O)N1CCC[C@@H]1c1nnc(C)n1Cc1ccc(Cl)cc1 [Compound 183] ?
Resp: 6.30 to 7.30

Req: And for CN1C(=O)COc2ccc(NC(=O)N3CCC[C@@H]3c3ncncc3Cc3ccc(Cl)cc3)cc21 [Compound 17] ?
Resp: 6.30 to 7.30
